assay text: chemical genetic growth profiling, strain panel (AID 1159580);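 note: tested at 20 µM; growth read once vehicle control cultures reached saturation at 30 °C; lower values mean less growth of the strain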
assay context: S. cerevisiae deletion strains, growth OD, locus YLR102C, strain apc9
The whole screen tested about 5,500 compounds, of which about 2,000 (36%) were called active. Another 18% or so got no clear call; they are omitted. Cut-off read from the data, not from the text of the source: active = normalized growth mostly below about 0.91 (no sharp cut-off); inconclusive = no clear call, values can overlap the other calls; inactive = mostly above about 0.92. The list shows a part of the results.
Parameter call: string, one of True for active, False for inactive

Input line: Which outcome was entered for the compound CC(=O)OC1CC(OC(C)=O)C2(C)C(CC(OC(C)=O)C3(C)C4=CC(=O)OC(=O)C4(C)CCC32)C1(C)C (centres undefined) in this test?
Output line: False

Input line: Which outcome was entered for the compound CC(C)CC(N(C)C)C1(c2ccc(Cl)cc2)CCC1 (centres undefined) in this test?
Output line: False

Input line: Which outcome was entered for the compound C/C=C(/C)C(=O)OC1CCC2(C)C3CCC4C5(O)CC(O)C6(O)C(CN7CC(C)CCC7C6(C)O)C5(O)CC42OC13O (centres undefined) in this test?
Output line: False

Input line: Which outcome was entered for the compound O=C1c2c(O)cccc2Cc2cccc(O)c21 in this test?
Output line: False

Input line: Which outcome was entered for the compound C[C@@H]1OC(O[C@H]2C(O[C@H]3CC[C@@]4(C)C(CC[C@]5(C)C4CC=C4C6CC(C)(C)CC[C@]6(C(=O)O)CC[C@]45C)[C@]3(C)CO)OC[C@H](O)[C@@H]2O)[C@H](O)[C@H](O)[C@H]1O (some centres undefined) in this test?
Output line: True

Input line: Which outcome was entered for the compound COC(=O)/C(C)=C\CC12OC(C)(C)C3CC(C=C4C(=O)c5c(O)c6c(c(CCC(C)(C)Cl)c5OC431)OC1(C)CCC(=C(C)C)C6C1)C2=O (centres undefined) in this test?
Output line: False

Input line: Which outcome was entered for the compound CNC(=O)O/N=C\C(C)(C)SC in this test?
Output line: False

Input line: Which outcome was entered for the compound Cc1ccnc(NS(=O)(=O)c2ccc(N)cc2)n1 in this test?
Output line: False

Input line: Which outcome was entered for the compound CC(=O)O[C@H]1CC[C@@]2(C)C(CC[C@]3(C)C2CC=C2C4CC(C)(C)CC[C@]4(C)CC[C@]23C)C1(C)C (some centres undefined) in this test?
Output line: False

Input line: Which outcome was entered for the compound CC1=CCC2C3(C)C1=CC(=O)OC3CC1C(C)(C)CC(O)C(O)C12C (centres undefined) in this test?
Output line: False

Input line: Which outcome was entered for the compound O=C(COc1ccc(Cl)cc1)N1CCN(Cc2ccc3c(c2)OCO3)CC1 in this test?
Output line: False

Input line: Which outcome was entered for the compound O=c1oc2cc(O)ccc2s1 in this test?
Output line: False

Input line: Which outcome was entered for the compound COc1cc(C(=O)O[C@H]2CC[C@@]3(C)[C@@H]4CC[C@H]5[C@]6(O)C[C@H](O)[C@@]7(O)[C@@H](CN8C[C@@H](C)CC[C@H]8[C@@]7(C)O)[C@]6(O)C[C@@]53O[C@]24O)cc(OC)c1OC in this test?
Output line: False

Input line: Which outcome was entered for the compound NC12CC3CC(CC(C3)C1)C2 in this test?
Output line: False

Input line: Which outcome was entered for the compound Cc1cc(O)c2c(c1)Cc1cccc(O)c1C2=O in this test?
Output line: False

Input line: Which outcome was entered for the compound CC(=O)OC1CC[C@@]2(C)C(CC[C@]3(C)C2CCC2C4CC(C)(C)CCC4(C(=O)O)CC[C@]23C)C1(C)C (some centres undefined) in this test?
Output line: False

Input line: Which outcome was entered for the compound COc1ccc2[nH]cc(CCN)c2c1 in this test?
Output line: False

Input line: Which outcome was entered for the compound NNC(=O)c1ccncc1 in this test?
Output line: False

Input line: Which outcome was entered for the compound CNCc1ccccc1 in this test?
Output line: False
